Assay: Quantitative High-Throughput drug screen in 47 multiple myeloma cell lines against the NCATS MIPE library collection: VP6_DJ cell viability assay (AID 1919867); further: potency means the concentration at half of the fitted maximal effect; nearly all actives have a fitted effect of over 40% in size
Settings: ATP luminescence, 48 h; series mostly up to 45.8 µM
Results filed as inconclusive are left out. Activity calls are given as the source filed them. The call rests on the fitted dose curve; in most records, active means well fitted cell-killing curve with a large enough effect; inconclusive means small, poorly fitted or top-dose-only effect, or effect the other way; inactive means no such curve, though single readings can be large or run the other way.
The following compounds are listed with their measured Potency values.

>  <line-notation>
C1=CCOCc2cc(ccc2OCCN2CCCC2)Nc2nccc(n2)-c2cccc(c2)OCC1

>  <reported-measurement>
1050 nM (active)

$$$$

Query N#CCNC(=O)c1ccc(-c2ccnc(Nc3ccc(N4CCOCC4)cc3)n2)cc1 yields Potency of 3720 nM (active)

The reported Potency of the compound Cc1c(CN2CCN(S(C)(=O)=O)CC2)sc2c(N3CCOCC3)nc(-c3cnc(N)nc3)nc12 was 23.5 nM (active)

Quick note, Potency for CCn1cc(-c2ccnc3[nH]c(-c4cccc(CN(C)C)c4)cc23)c(-c2ccc(NC(=O)N(C)C)cc2)n1 landed at 1480 nM (active)
